system: SF-268 CNS; assay: NCI-60 one-dose screen, 48 h (100 = growth as untreated, 0 = no growth, -100 = all killed); conditions: 10 µM unless noted
About 83,000 compounds went through this panel and 20% of them were active in at least one assay; those are over-represented in the sample as a whole.
So basically: is growth under 80%? Then MET. Not under? Then NOT MET.

{"columns": ["compound", "category_label"],
 "data": [
  ["N#Cc1ccc(NC(=O)Nc2nc3ccc(OC(F)(F)F)cc3s2)cc1", "MET"],
  ["CNC(=O)c1cc(Oc2ccc(NC(=O)c3nc(S(C)(=O)=O)sc3-c3ccc(F)cc3)cc2)ccn1", "NOT MET"],
  ["C/C(=N\\OC(=O)Nc1ccccc1)c1ccccc1", "NOT MET"],
  ["C=CCn1c(SCC(=O)Nc2ccc(C(=O)/C=C/c3ccc(Cl)cc3)cc2)nnc1-c1ccc(Cl)cc1", "NOT MET"],
  ["COc1ccc(/C(=C\\c2cc(OC)c(OC)c(OC)c2)C(=O)N2CCNCC2)cc1", "NOT MET"],
  ["COc1cccc(CC(C)=C(c2ccc(OCCCN(C)C)cc2)c2ccc(OCCCN(C)C)cc2)c1", "MET"],
  ["O=[N+]([O-])c1cccc([I+]c2ccccc2)c1", "MET"],
  ["CC(CN1CCN(C)CC1)CN1c2ccccc2Sc2ccc(C(F)(F)F)cc21 (stereo not given)", "MET"],
  ["COc1cccc2nc(Nc3cccc(NC(=O)c4cc(N5CCOCC5)cc(C(F)(F)F)c4)c3)ccc12", "MET"],
  ["CCCCN(CCCC)CCC(O)c1cc2ccc(C(F)(F)F)cc2c2cc(C(F)(F)F)ccc12 (stereo not given)", "MET"],
  ["COc1cc(/C=C/C(=O)c2ccc(NC(=O)CSc3nnc(-c4ccc(Cl)cc4)n3-c3ccccc3)cc2)cc(OC)c1OC", "MET"],
  ["COc1ccc(/C=c2\\c(=O)n(-c3ccccc3)c3nn4c(n23)=NNC42CCCCC2)cc1", "NOT MET"],
  ["COc1c(B(O)O)cccc1-c1nc2ccc3[nH]ncc3c2c2c1CCCC2", "MET"],
  ["Cc1nc2ccc(Nc3nc(NCCN4CCOCC4)nc(Nc4ccc(F)cc4)n3)cc2n1Cc1ccccc1", "MET"],
  ["N[C@@H](CO)C(=O)O", "NOT MET"]
]}

----------
test system: CCRF-CEM leukemia; assay: NCI-60 one-dose screen, 48 h (100 = growth as untreated, 0 = no growth, -100 = all killed); conditions: 10 µM unless noted
About 83,000 compounds went through this panel and 20% of them were active in at least one assay; those are over-represented in the sample as a whole.
So basically: is growth under 20%? Then true (1). Not under? Then false (0).

{"columns": ["mol_smiles", "category_label"],
 "data": [
  ["CC(C)N1CCN(c2ccncc2S(=O)(=O)N2CCN(C)CC2)CC1", "false (0)"],
  ["O=[N+]([O-])c1cccc([I+]c2ccccc2)c1", "true (1)"],
  ["COc1ccc(NC(=O)/C=C/c2ccc(NC(=O)N3CCCC3)cc2)cn1", "false (0)"],
  ["O=C1Cc2c([nH]c3ccc([N+](=O)[O-])cc23)-c2ccccc2N1", "true (1)"],
  ["COc1cc(Cn2c(-c3ccccc3)cc3c2-c2oncc2CC3)cc(OC)c1OC", "true (1)"],
  ["CC(C)c1ccc(Cn2ccc3c4c(N)nc(NC5CC5)nc4ccc32)cc1", "true (1)"]
]}
